These data points were gathered from patent US6583180B2.

I'd appreciate it if you could supply inhibition at 1.7 µM values for the items below.
- Target: Human glucocorticoid receptors (Homo sapiens, UniProt P04150)
- Construct: made in house; host or cells: Sf9 insect cells, recombinant baculovirus (BAC-TO-BAC)
- Sequence (P04150 whole entry): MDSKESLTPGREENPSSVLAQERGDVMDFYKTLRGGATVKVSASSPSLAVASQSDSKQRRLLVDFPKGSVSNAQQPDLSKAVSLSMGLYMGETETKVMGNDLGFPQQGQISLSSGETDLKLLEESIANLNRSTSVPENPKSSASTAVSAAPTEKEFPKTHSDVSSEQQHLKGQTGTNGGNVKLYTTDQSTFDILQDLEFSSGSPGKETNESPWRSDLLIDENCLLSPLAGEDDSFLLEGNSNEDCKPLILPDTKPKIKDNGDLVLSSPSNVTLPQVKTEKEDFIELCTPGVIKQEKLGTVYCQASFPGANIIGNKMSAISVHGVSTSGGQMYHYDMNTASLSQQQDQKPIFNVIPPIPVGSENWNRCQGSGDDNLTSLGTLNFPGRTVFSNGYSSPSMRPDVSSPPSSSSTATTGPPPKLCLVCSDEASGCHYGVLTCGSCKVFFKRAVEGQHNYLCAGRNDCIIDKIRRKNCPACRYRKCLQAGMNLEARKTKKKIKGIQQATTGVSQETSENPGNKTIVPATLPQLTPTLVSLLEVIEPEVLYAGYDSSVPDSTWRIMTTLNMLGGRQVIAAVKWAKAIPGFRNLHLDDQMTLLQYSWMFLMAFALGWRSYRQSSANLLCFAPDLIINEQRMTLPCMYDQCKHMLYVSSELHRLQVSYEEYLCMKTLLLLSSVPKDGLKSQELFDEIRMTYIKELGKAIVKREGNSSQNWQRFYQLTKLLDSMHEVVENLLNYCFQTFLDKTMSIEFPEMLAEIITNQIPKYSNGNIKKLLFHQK
- Protocol summary: Radioligand filter binding assay, displacement of 3[H]-dexamethasone from hGR
- Test parameters: read-out: GR Binding (% Inhibition at 1.7 μM)
I only need the number, in %, no unit after it.

Query string: Read off the recorded inhibition at 1.7 µM for Cc1c(NS(C)(=O)=O)cccc1N(Cc1ccccc1)Cc1ccc(Oc2ccc(CCC(=O)NCC(=O)O)cc2)cc1
Result string: 95.7

Query string: Give the reported value of inhibition at 1.7 µM for this record: Cc1c(NS(C)(=O)=O)cccc1N(Cc1ccc(OCc2ccccc2)cc1)Cc1ccc(F)cc1F
Result string: 90

Query string: For the compound Cc1c(NS(C)(=O)=O)cccc1N(Cc1ccccc1)Cc1ccc(Oc2ccc(CCC(=O)NCCN3CCOCC3)cc2)cc1 , report inhibition at 1.7 µM.
Result string: 93.5

Query string: Please look at this compound and report its inhibition at 1.7 µM: Cc1c(NS(C)(=O)=O)cccc1N(Cc1ccc(Oc2ccc(CCCC(=O)O)cc2)cc1)Cc1ccc(F)cc1F
Result string: 97.2

====

Could you please report measured log10 IC50 for the items listed next?
- Target: progesterone receptor (PR) (Homo sapiens)
- Sequence (P06401 whole entry): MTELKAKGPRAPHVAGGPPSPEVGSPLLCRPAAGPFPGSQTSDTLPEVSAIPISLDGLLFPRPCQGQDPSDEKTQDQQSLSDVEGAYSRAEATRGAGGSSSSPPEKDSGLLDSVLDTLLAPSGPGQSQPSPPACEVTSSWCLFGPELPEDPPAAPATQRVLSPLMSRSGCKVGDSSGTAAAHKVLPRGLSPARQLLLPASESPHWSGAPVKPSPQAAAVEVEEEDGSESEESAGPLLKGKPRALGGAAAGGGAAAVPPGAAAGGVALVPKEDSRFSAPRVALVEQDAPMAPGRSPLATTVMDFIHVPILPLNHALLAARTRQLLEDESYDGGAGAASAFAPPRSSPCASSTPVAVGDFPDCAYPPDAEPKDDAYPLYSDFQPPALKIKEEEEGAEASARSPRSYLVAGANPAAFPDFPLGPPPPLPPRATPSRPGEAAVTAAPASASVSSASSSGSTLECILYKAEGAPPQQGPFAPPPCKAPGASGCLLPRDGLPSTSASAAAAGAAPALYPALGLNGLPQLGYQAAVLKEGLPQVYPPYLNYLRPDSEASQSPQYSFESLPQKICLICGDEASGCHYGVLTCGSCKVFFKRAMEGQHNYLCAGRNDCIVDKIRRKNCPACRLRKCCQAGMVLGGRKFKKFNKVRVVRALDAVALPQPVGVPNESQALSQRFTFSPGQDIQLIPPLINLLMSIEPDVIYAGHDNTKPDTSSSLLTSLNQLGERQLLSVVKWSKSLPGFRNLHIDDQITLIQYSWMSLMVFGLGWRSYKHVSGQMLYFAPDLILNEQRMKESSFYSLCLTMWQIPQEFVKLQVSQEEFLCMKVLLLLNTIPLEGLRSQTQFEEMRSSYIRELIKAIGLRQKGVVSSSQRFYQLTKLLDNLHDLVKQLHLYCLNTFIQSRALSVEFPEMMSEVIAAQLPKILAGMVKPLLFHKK
- Protocol summary: Radioligand binding assay for progesterone receptor (similar protocol);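 further: radioligand binding measured with cytosol preparations containing the human progesterone receptor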
The base-10 logarithm of IC50, taken with IC50 in nM, is what appears here.

Query string: Could you please provide reported log10 IC50 for Cc1c(NS(C)(=O)=O)cccc1N(Cc1ccc(Oc2cccc(OCCCC(=O)NCCC(=O)O)c2)cc1)Cc1ccc(F)cc1F [Example 324] ? Thanks!
Result string: 2.09

Query string: Specify log10 IC50 for Cc1c(NS(C)(=O)=O)cccc1N(Cc1ccccc1)Cc1ccc(Oc2cccc(OCC(=O)NCCCN3CCCC3=O)c2)cc1 [Example 114] and stop.
Result string: 3.14

Query string: Name the recorded log10 IC50 of the molecule listed here: Cc1c(NS(C)(=O)=O)cccc1N(Cc1ccccc1)Cc1ccc(F)cc1 [Example 9]
Result string: 3.61

Query string: Supply recorded log10 IC50 for C=CCOc1ccc(CN(Cc2ccc(F)cc2F)c2cccc(NS(C)(=O)=O)c2C)cc1 [Example 20] here.
Result string: 2.63

Query string: Identify measured log10 IC50 corresponding to Cc1c(NS(C)(=O)=O)cccc1N(Cc1ccccc1)Cc1ccc(Oc2ccc(CCC(=O)NCCCCO)cc2)cc1 [Example 150]
Result string: 3.41

Query string: Report log10 IC50 for Cc1c(NS(C)(=O)=O)cccc1N(Cc1ccc(Oc2ccc(F)c(OCC(=O)O)c2)cc1)Cc1ccc(F)cc1F [Example 305]
Result string: 0.95

Query string: For the molecule Cc1c(NS(C)(=O)=O)cccc1N(Cc1ccc(F)cc1F)Cc1ccccc1C#N [Example 25] , report log10 IC50.
Result string: 3.25

Query string: Specify log10 IC50 for Cc1c(NS(C)(=O)=O)cccc1N(Cc1ccccc1)Cc1ccc(Oc2cccc(OCCCN(C)C)c2)cc1 [Example 72] and stop.
Result string: 2.66

Query string: Dear colleague, please send me the reported log10 IC50 for COCCOc1cc(Oc2ccc(CN(Cc3ccccc3)c3cccc(NS(C)(=O)=O)c3C)cc2)ccc1CCCC(=O)O [Example 63] when you can.
Result string: 2.81

Query string: Specify measured log10 IC50 for COC(=O)c1cccc(Oc2ccc(CN(Cc3ccc(F)cc3F)c3cccc(NS(C)(=O)=O)c3C)cc2)c1 [Example 67] .
Result string: 2.82

Query string: Determine from records and report log10 IC50 for Cc1c(NS(C)(=O)=O)cccc1N(Cc1ccccc1)Cc1ccc(Oc2cccc(OCC(=O)O)c2)cc1 [Example 62]
Result string: 2.39

Query string: Supply measured log10 IC50 of Cc1c(NS(C)(=O)=O)cccc1N(Cc1ccc(Oc2ccc(CCC(=O)O)cc2)cc1)Cc1ccc(Cl)cc1F [Example 86] in your reply.
Result string: 2.33
